System: HEK293 NF-kB-luciferase reporter cells
assay_overview: NF-kB luciferase reporter activity, robust Z-score vs plate median (robust Z-score (log luminescence)); higher = stronger NF-kB reporter activation
experimental_conditions: TNF 40 ng/mL; TNF treatment time 8.5 h; transfection time 72 h
Categories are assigned from the measured NF-kB luciferase reporter activity using these intervals: lower (below -0.5), middle (-0.5 to below 0.3), upper (0.3 or more)

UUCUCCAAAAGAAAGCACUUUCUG
lower

Task item: The entry to classify is `AUCACACAAAGGCAACUUUUGU` ; which class holds it?
Reply: middle

Task item: The entry to classify is `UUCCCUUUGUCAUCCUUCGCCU` ; which class holds it?
Reply: upper

Task item: The entry to classify is `UUUUGCACCUUUUGGAGUGAA` ; which class holds it?
Reply: middle

Task item: The entry to classify is `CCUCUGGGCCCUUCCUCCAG` ; which class holds it?
Reply: lower

###

Test system: HEK293 NF-kB-luciferase reporter cells
assay_overview: NF-kB luciferase reporter activity, robust Z-score vs plate median (robust Z-score (log luminescence)); higher = stronger NF-kB reporter activation
experimental_conditions: TNF 40 ng/mL; TNF treatment time 8.5 h; transfection time 72 h
# NF-kB luciferase reporter activity per entry
No unit in the answer, only the number.

Study these solved cases before continuing.
AUGCACCUGGGCAAGGAUUCUG
1.14
UACUCAGGAGAGUGGCAAUCACA
-0.306
AGGGCCCCCCCUCAAUCCUGU
0.259

Task item: Determine from records and report NF-kB luciferase reporter activity for `UCUACAAAGGGAAGCCCUUUCUG`
Reply: 0.879

Task item: Determine from records and report NF-kB luciferase reporter activity for `CAACGGAAUCCCAAAAGCAGCU`
Reply: 1.2

Task item: Determine from records and report NF-kB luciferase reporter activity for `AACAUUCAUUGUUGUCGGUGGGUU`
Reply: -0.631

Task item: Determine from records and report NF-kB luciferase reporter activity for `UCAAGAGCAAUAACGAAAAAUGU`
Reply: 1.08

Task item: Determine from records and report NF-kB luciferase reporter activity for `UUGUACAUGGUAGGCUUUCAUU`
Reply: 0.433

###

Tested on: HEK293 NF-kB-luciferase reporter cells
assay_overview: NF-kB luciferase reporter activity, robust Z-score vs plate median (robust Z-score (log luminescence)); higher = stronger NF-kB reporter activation
experimental_conditions: TNF 0 ng/mL; TNF treatment time 8.5 h; transfection time 72 h
# NF-kB luciferase reporter activity per entry
No unit in the answer, only the number.

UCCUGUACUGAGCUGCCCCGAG
0.874
UAUGGCUUUUCAUUCCUAUGUG
-0.314
AGAGGUAUAGGGCAUGGGAAAA
-0.25
UCACUCCUCUCCUCCCGUCUUCU
2.53
ACAAAGUGCUUCCCUUUAGAGUGU
-0.845

In the following, a different sequence is considered.
Task item: Determine from records and report NF-kB luciferase reporter activity for `UCAGUGCAUGACAGAACUUGGG`
Reply: -0.378

###

Tested on: HEK293 NF-kB-luciferase reporter cells
assay_overview: NF-kB luciferase reporter activity, robust Z-score vs plate median (robust Z-score (log luminescence)); higher = stronger NF-kB reporter activation
experimental_conditions: TNF 0 ng/mL; TNF treatment time 8.5 h; transfection time 72 h
measure: NF-kB luciferase reporter activity
No unit in the answer, only the number.

Study these solved cases before continuing.
UCUUGGAGUAGGUCAUUGGGUGG
1.37
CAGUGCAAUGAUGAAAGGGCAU
1.21
AUUACAUGGCCAAUCUC
0.0633

In the following, a different sequence is considered.
Task item: Determine from records and report NF-kB luciferase reporter activity for `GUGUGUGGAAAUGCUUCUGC`
Reply: 0.447
